System: Trypanosoma brucei rhodesiense
assayMethodText: Antitrypanosomal activity against Trypanosoma brucei rhodesiense
Type: functional, organism-based
So I've got a bunch of compounds here, and I need their pIC50 values.
Interpret pIC50 as the negative base-10 log of the concentration measured in mol/L.

[Q] Quick one: pIC50 for COc1cc(C(=N)N)ccc1-c1cc(-c2ccc(C(=N)N)cc2)on1 ?
[A] 7.79

[Q] Quick one: pIC50 for N=C(N)c1cccc(-c2cc(-c3ccc(C(=N)N)cc3[N+](=O)[O-])no2)c1 ?
[A] 7.71

[Q] Quick one: pIC50 for CC(C)NC(=N)c1cccc(-c2cc(-c3cccc(C(=N)NC(C)C)c3)on2)c1 ?
[A] 5.30

[Q] Quick one: pIC50 for N=C(N)c1ccc(-c2cc(-c3ccccc3)on2)cc1 ?
[A] 5.95

[Q] Quick one: pIC50 for N=C(N)c1ccc(-c2cc(-c3ccc(C(=N)N)cc3Cl)on2)cc1 ?
[A] 7.81

[Q] Quick one: pIC50 for COc1cc(C(=N)N)ccc1-c1cc(-c2cccc(C(=N)N)c2)no1 ?
[A] 8.19

[Q] Quick one: pIC50 for N=C(N)c1ccc(-c2cc(-c3ccccc3)no2)cc1 ?
[A] 5.76

[Q] Quick one: pIC50 for N=C(N)c1cccc(-c2cc(-c3ccc(C(=N)N)cc3[N+](=O)[O-])on2)c1 ?
[A] 8.05

[Q] Quick one: pIC50 for N=C(N)c1ccc(-c2cc(-c3ccc(C(=N)N)cc3)on2)cc1 ?
[A] 8.29

[Q] Quick one: pIC50 for c1cc(C2=NCCN2)cc(-c2cc(-c3ccc(C4=NCCN4)cc3)no2)c1 ?
[A] 6.01
